Taken from ChEMBL document CHEMBL6114985.

test: Metabolic stability in human liver microsome assessed as intrinsic clearance incubated for 120 mins by HPLC-MS/MS; format: ADME; details: liver microsomes, read-out: CLH
measured_property: microsomal CLint

Below, 2 compounds whose answers are already recorded.
> print(dat)
                               input.smiles        result
1  COc1ccc(F)c(C(=O)Nc2cncc(-c3cc(-c4cccnc4)cs3)c2)c1Cl  56 µL/min/mg
2   COc1ccc(F)c(C(=O)Nc2cncc(-c3cccs3)c2)c1  44 µL/min/mg

// query microsomal CLint value for entry COc1ccc(F)c(C(=O)Nc2cncc(-c3cc(-c4cccnc4)cs3)c2)c1
27 µL/min/mg
